target-system: Phosphodiesterase 4 (Homo sapiens, UniProt P27815+Q08499+Q07343+Q08493)
assay-info: Inhibition of PDE4 isolated from human U937 cells assessed as […] by LANCE assay
Assay type: cell-free
measurement-parameters: u-937
property-measured: IC50 (nM)
Numbers only, in nM.

Example cases with answers are listed next.
Cc1ccc(C(=O)O[C@@H](Cc2c(Cl)c[n+]([O-])cc2Cl)c2ccc(OC(F)F)c(OCC3CC3)c2)cc1 : 0.1
O=C(O[C@@H](Cc1c(Cl)c[n+]([O-])cc1Cl)c1ccc(OC(F)F)c(OCC2CC2)c1)c1ccc(OC(F)F)c(OCC2CC2)c1 : 0.22
N#Cc1ccc(C(=O)O[C@@H](Cc2c(Cl)c[n+]([O-])cc2Cl)c2ccc(OC(F)F)c(OCC3CC3)c2)cc1 : 0.41

IN: Provide IC50, system Phosphodiesterase 4 (Homo sapiens, UniProt P27815+Q08499+Q07343+Q08493), entry "COc1ccc(C(=O)O[C@@H](Cc2c(Cl)c[n+]([O-])cc2Cl)c2ccc(OC(F)F)c(OCC3CC3)c2)cc1"
OUT: 0.14

---

assay-info: Half life in human lung slices at 1 uM after 2 hrs by LC-MS/MS analysis
Format: ADME, tissue-based
property-measured: half-life at 1 µM (h)
Give bare numbers, in h.

IN: Let me know recorded half-life at 1 µM for "CS(=O)(=O)Nc1ccc(C(=O)O[C@@H](Cc2c(Cl)c[n+]([O-])cc2Cl)c2ccc(OC(F)F)c(OCC3CC3)c2)cc1OCC1CC1" , thanks.
OUT: 3.95

---

assay-info: Plasma protein binding in rat at 5 uM after 5 hrs by LC-MS/MS analysis
Format: ADME, cell-free
measurement-parameters: read-out: PPB (converted)
property-measured: fraction unbound at 5 h, 5 µM
One number for each entry.

IN: Let me know recorded fraction unbound at 5 h, 5 µM for "CS(=O)(=O)Nc1ccc(C(=O)O[C@@H](Cc2c(Cl)c[n+]([O-])cc2Cl)c2ccc(OC(F)F)c(OCC3CC3)c2)cc1OCC1CC1" , thanks.
OUT: 0.008

---

target-system: Phosphodiesterase 4 (Homo sapiens, UniProt P27815+Q08499+Q07343+Q08493)
assay-info: Inhibition of PDE4 activity in human PBMC assessed as inhibition of LPS-induced TNFalpha release after 18 hrs by ELISA
Would you mind telling me the reported IC50 of each entry?
Answers are plain numbers, in pM.

COc1ccc(C(=O)O[C@@H](Cc2c(Cl)c[n+]([O-])cc2Cl)c2ccc(OC(F)F)c(OCC3CC3)c2)cc1NC(C)=O : 670
CN(C)c1ccc(C(=O)O[C@@H](Cc2c(Cl)c[n+]([O-])cc2Cl)c2ccc(OC(F)F)c(OCC3CC3)c2)cc1OCC1CC1 : 630
CC(=O)Nc1ccc(C(=O)O[C@@H](Cc2c(Cl)c[n+]([O-])cc2Cl)c2ccc(OC(F)F)c(OCC3CC3)c2)cc1OCC1CC1 : 210

Now, please, on to the next compound.
IN: Let me know recorded IC50 for "CS(=O)(=O)Nc1cccc(C(=O)O[C@@H](Cc2c(Cl)c[n+]([O-])cc2Cl)c2ccc(OC(F)F)c(OCC3CC3)c2)c1OCC1CC1" , thanks.
OUT: 1310

---

assay-info: Plasma protein binding in human at 5 uM after 5 hrs by LC-MS/MS analysis
Type: ADME, cell-free
measurement-parameters: read-out: PPB (converted)
property-measured: fraction unbound at 5 h, 5 µM
Give bare numbers.

IN: Let me know recorded fraction unbound at 5 h, 5 µM for "CS(=O)(=O)Nc1ccc(C(=O)O[C@@H](Cc2c(Cl)c[n+]([O-])cc2Cl)c2ccc(OC(F)F)c(OCC3CC3)c2)cc1OCC1CC1" , thanks.
OUT: 0.0002

---

Would you mind telling me the reported IC50 of each entry?
target-system: Phosphodiesterase 4 (Homo sapiens, UniProt P27815+Q08499+Q07343+Q08493)
assay-info: Inhibition of PDE4 isolated from human U937 cells assessed as […] by LANCE assay
Format: cell-free
measurement-parameters: u-937
Numbers only, in nM.

CS(=O)(=O)Nc1cccc(C(=O)O[C@@H](Cc2c(Cl)c[n+]([O-])cc2Cl)c2ccc(OC(F)F)c(OCC3CC3)c2)c1OCC1CC1 : 0.18
O=C(O[C@@H](Cc1c(Cl)c[n+]([O-])cc1Cl)c1ccc(OC(F)F)c(OCC2CC2)c1)c1ccc(CO)c(OCC2CC2)c1 : 0.08

Now, please, on to the next compound.
IN: Let me know recorded IC50 for O=C(OC(Cc1c(Cl)cncc1Cl)c1ccc(OC(F)F)c(OCC2CC2)c1)c1ccccc1 (racemic) , thanks.
OUT: 1.14

---

Would you mind telling me the reported IC50 of each entry?
target-system: Phosphodiesterase 4 (Homo sapiens, UniProt P27815+Q08499+Q07343+Q08493)
assay-info: Inhibition of PDE4 isolated from human U937 cells assessed as […] by LANCE assay
Type: cell-free
measurement-parameters: u-937

Example cases with answers are listed next.
O=C(O[C@@H](Cc1c(Cl)c[n+]([O-])cc1Cl)c1ccc(OC(F)F)c(OCC2CC2)c1)c1ccc(O)c(OCC2CC2)c1 : 0.04 nM
COc1ccc(C(=O)O[C@@H](Cc2c(Cl)c[n+]([O-])cc2Cl)c2ccc(OC(F)F)c(OCC3CC3)c2)cc1OC : 0.07 nM
Nc1ccc(C(=O)O[C@@H](Cc2c(Cl)c[n+]([O-])cc2Cl)c2ccc(OC(F)F)c(OCC3CC3)c2)cc1OCC1CC1 : 0.09 nM

Now, please, on to the next compound.
IN: Let me know recorded IC50 for "O=C(O[C@@H](Cc1c(Cl)c[n+]([O-])cc1Cl)c1ccc(OC(F)F)c(OCC2CC2)c1)c1ccc(C(=O)O)c(OCC2CC2)c1" , thanks.
OUT: 0.05 nM

---

target-system: Phosphodiesterase 4 (Homo sapiens, UniProt P27815+Q08499+Q07343+Q08493)
assay-info: Inhibition of PDE4 activity in human PBMC assessed as inhibition of LPS-induced TNFalpha release after 18 hrs by ELISA
Would you mind telling me the reported IC50 of each entry?
Answers are plain numbers, in pM.

Example cases with answers are listed next.
O=C(O[C@@H](Cc1c(Cl)c[n+]([O-])cc1Cl)c1ccc(OC(F)F)c(OCC2CC2)c1)c1ccccc1 : 1710
CS(=O)(=O)Nc1cc(C(=O)O[C@@H](Cc2c(Cl)c[n+]([O-])cc2Cl)c2ccc(OC(F)F)c(OCC3CC3)c2)ccc1OCC1CC1 : 120
COc1cc(C(=O)O[C@@H](Cc2c(Cl)c[n+]([O-])cc2Cl)c2ccc(OC(F)F)c(OCC3CC3)c2)ccc1NS(C)(=O)=O : 380
N#Cc1ccc(C(=O)O[C@@H](Cc2c(Cl)c[n+]([O-])cc2Cl)c2ccc(OC(F)F)c(OCC3CC3)c2)cc1 : 2100
O=C(O[C@@H](Cc1c(Cl)c[n+]([O-])cc1Cl)c1ccc(OC(F)F)c(OCC2CC2)c1)c1ccc(C(=O)O)c(OCC2CC2)c1 : 300

Now, please, on to the next compound.
IN: Let me know recorded IC50 for "COc1ccc(NS(C)(=O)=O)cc1C(=O)O[C@@H](Cc1c(Cl)c[n+]([O-])cc1Cl)c1ccc(OC(F)F)c(OCC2CC2)c1" , thanks.
OUT: 890

---

target-system: Phosphodiesterase 4 (Homo sapiens, UniProt P27815+Q08499+Q07343+Q08493)
assay-info: Inhibition of PDE4 isolated from human U937 cells assessed as […] by LANCE assay
Assay type: cell-free
measurement-parameters: u-937
property-measured: IC50 (pM)
One number for each entry, in pM.

Example cases with answers are listed next.
COc1cc(C(=O)O[C@@H](Cc2c(Cl)c[n+]([O-])cc2Cl)c2ccc(OC(F)F)c(OCC3CC3)c2)ccc1NS(C)(=O)=O : 60
O=C(CCCc1ccccc1)OC(Cc1c(Cl)cncc1Cl)c1ccc(OC(F)F)c(OCC2CC2)c1 (racemic) : 1340
CCCC(=O)OC(Cc1c(Cl)cncc1Cl)c1ccc(OC(F)F)c(OCC2CC2)c1 (racemic) : 1740

IN: Let me know recorded IC50 for "COc1ccc(C(=O)O[C@@H](Cc2c(Cl)c[n+]([O-])cc2Cl)c2ccc(OC(F)F)c(OCC3CC3)c2)cc1S(=O)(=O)N(C)C" , thanks.
OUT: 30

---

target-system: Phosphodiesterase 4 (Homo sapiens, UniProt P27815+Q08499+Q07343+Q08493)
assay-info: Inhibition of PDE4 isolated from human U937 cells assessed as […] by LANCE assay
Format: cell-free
measurement-parameters: u-937
property-measured: log10 of IC50 (log10 of the value in nM)
Hi team, quick reminder: these entries are log10 of IC50 (nM).

Example cases with answers are listed next.
O=C(O[C@H](Cc1c(Cl)c[n+]([O-])cc1Cl)c1ccc(OC(F)F)c(OCC2CC2)c1)c1ccc(OC(F)F)c(OCC2CC2)c1 : 0.39
CN(C)c1ccc(C(=O)O[C@@H](Cc2c(Cl)c[n+]([O-])cc2Cl)c2ccc(OC(F)F)c(OCC3CC3)c2)cc1OCC1CC1 : -0.51
O=C(O[C@@H](Cc1c(Cl)cncc1Cl)c1ccc(OC(F)F)c(OCC2CC2)c1)c1ccc(OC(F)F)c(OCC2CC2)c1 : 0.28

Would you mind giving log10 of IC50 for every compound in the list below?
1. Cc1ccc(C(=O)O[C@@H](Cc2c(Cl)c[n+]([O-])cc2Cl)c2ccc(OC(F)F)c(OCC3CC3)c2)cc1NS(C)(=O)=O
2. O=C(OC(Cc1c(Cl)cncc1Cl)c1ccc(OC(F)F)c(OCC2CC2)c1)c1ccc(OC(F)F)c(OCC2CC2)c1 (racemic)
3. O=C(O[C@@H](Cc1c(Cl)c[n+]([O-])cc1Cl)c1ccc(OC(F)F)c(OCC2CC2)c1)c1ccccc1
4. COc1ccc(C(=O)O[C@@H](Cc2c(Cl)c[n+]([O-])cc2Cl)c2ccc(OC(F)F)c(OCC3CC3)c2)c(NS(C)(=O)=O)c1

OUT:
[-1.52, 0.54, -1.14, -0.14]
